Value source: patent US12077503B2

- Test system: morningglory (Ipomoea coccinea)
- protocol-details: Test C preemergence
- Format: in vivo
- condition-label: 31 g ai/ha, 0 is no effect, 100 is complete control
// reported Plant response rating (scale of 0 to 100), Morningglory for each item listed
endpoint-label: Plant response rating (scale of 0 to 100), Morningglory

>  <molecule>
CN1C[C@H](c2ccc(F)c(F)c2)[C@@H](C(=O)Nc2ccccc2F)C1=O

>  <system>
morningglory (Ipomoea coccinea)

>  <val>
0

$$$$
>  <molecule>
O=C1NCC(c2cccc(OC(F)(F)C(F)F)c2)C1C(=O)Nc1cccc(F)c1F (racemic)

>  <system>
morningglory (Ipomoea coccinea)

>  <val>
10

$$$$
>  <molecule>
CN1CC(c2ccc(F)c(F)c2)C(C(=O)Nc2ccccc2C(F)(F)F)C1=O (centres unmarked)

>  <system>
morningglory (Ipomoea coccinea)

>  <val>
0

$$$$
>  <molecule>
CN1CC(c2ccc(C(C)(F)F)cc2)C(C(=O)Nc2cccc(F)c2F)C1=O (centres unmarked)

>  <system>
morningglory (Ipomoea coccinea)

>  <val>
0

$$$$
>  <molecule>
O=C1NCC(c2cccc(OC(F)(F)C(F)F)c2)C1C(=O)Nc1ccc(F)c(F)c1F (racemic)

>  <system>
morningglory (Ipomoea coccinea)

>  <val>
0

$$$$
